details: in dichloromethane, 303.15 K
recorded.metric: solubility (mole fraction)

[[record]]
smiles = "O=C(N[C@H](C(=O)O)c1ccccc1)OCc1ccccc1"
recorded_metric = "solubility (mole fraction)"
value_reported = 0.0149


====

details: in isopropanol, 303.15 K
recorded.metric: solubility (mole fraction)

[[record]]
smiles = "O=C(N[C@H](C(=O)O)c1ccccc1)OCc1ccccc1"
recorded_metric = "solubility (mole fraction)"
value_reported = 0.0328


====

conditions: in ethanol, 303.15 K
recorded.metric: solubility (mole fraction)

[[record]]
smiles = "O=C(N[C@H](C(=O)O)c1ccccc1)OCc1ccccc1"
value_reported = 0.0581


====

conditions: in acetonitrile, 313.15 K
recorded.metric: solubility (mole fraction)

[[record]]
smiles = "O=C(N[C@H](C(=O)O)c1ccccc1)OCc1ccccc1"
recorded_metric = "solubility (mole fraction)"
value_reported = 0.0253

